- experimental.system: Nonstructural protein 3 (Zika virus, UniProt A0A024AXB9)
- Sequence (A0A024AXB9 whole entry): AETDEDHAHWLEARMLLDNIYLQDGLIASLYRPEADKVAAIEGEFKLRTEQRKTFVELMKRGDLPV
- assay: Functional biochemical assay to identify treatments for viral infectious disease that targets Zika NS2B-NS3 protease. Utilizing a direct enzyme activity measurement method, reading the fluorescence intensity is used to characterize the relative potency of inhibitors as IC50.
- Parameters: species or system PRVABC59
pIC50: −log10 of the molar value.

structure.smiles.string: Cc1c(C(=O)Nc2ccc(CN)cc2)cc(C2CC2)n1C
pIC50: < 4.00
//
structure.smiles.string: CC(C)(C)Cn1c(=O)[nH]c2cccc(C(=O)Nc3cccc(CN)c3)c21
pIC50: 4.43
//
structure.smiles.string: O=C(Nc1ccc2c(c1)CNC2)C1CCCCC1
pIC50: < 4.00
//
structure.smiles.string: COc1ccc(F)cc1-c1ccc(S(=O)(=O)Nc2cc(Cl)cc(C(=O)O)c2)cc1
pIC50: < 4.00
//
structure.smiles.string: COc1ccc(S(=O)(=O)Nc2ccc(Cl)cc2C(=O)O)cc1
pIC50: < 4.00
//
structure.smiles.string: NCC1(c2ccc(C(=O)N3CCc4scc(Br)c4C3)cc2)CC1
pIC50: < 4.00
//
structure.smiles.string: N#Cc1ccc(Cl)c(C(=O)Nc2ccc3c(c2)CNC3)c1
pIC50: 5.70
//
structure.smiles.string: CCn1cc(S(=O)(=O)N[C@@H](C(=O)Nc2cccc(CN)c2)c2ccc(OCc3ccccc3)cc2)cn1
pIC50: < 4.00
//
structure.smiles.string: N=C(N)NCc1ccc(NC(=O)Oc2ccccc2)cc1
pIC50: < 4.00
//
structure.smiles.string: CCOC(=O)c1csc([C@H]2CCCN2C(=O)Nc2ccc3c(c2)CNC3)n1
pIC50: < 4.60
//
structure.smiles.string: CCn1c(=O)c(N2C[C@@H]3[C@H](C2)[C@H]2CC[C@@H]3O2)nc2ccccc21
pIC50: < 4.00
//
structure.smiles.string: O=Cc1ccc(N2CCC(C(=O)NCCc3ccccc3[N+](=O)[O-])CC2)cc1
pIC50: < 4.30
//
structure.smiles.string: O=C(O)c1cc(Cl)ccc1NCc1ccc(Oc2ccccc2Cl)cc1
pIC50: < 4.00
//
structure.smiles.string: Cc1c(C(=O)Nc2cccc(CN)c2)cc(C2CCC2)n1C
pIC50: < 4.00
//
structure.smiles.string: CCn1cc(-c2ccc(CN(C)C)cc2)nc(N2CC[C@@H](CO)C2)c1=O
pIC50: < 4.00
//
structure.smiles.string: CN(C)Cc1cccc(NC(=O)[C@H](NC(=O)OCc2ccccc2)c2ccc(OCc3ccccc3)cc2)c1
pIC50: < 4.00
//
structure.smiles.string: CN(C)[C@@H]1C[C@H](C(=O)Nc2cccc(CN)c2)CN(C(=O)OCc2ccccc2)C1
pIC50: < 4.00
//
structure.smiles.string: CCCn1ncc2c(C(=O)Nc3ccc4c(c3)CNC4)cc(Cl)cc21
pIC50: 6.73
//
structure.smiles.string: CCn1c(=O)c(N2CC[C@H](CO)C2)nc2ccc(C(=O)NS(C)(=O)=O)cc21
pIC50: < 4.00
//
structure.smiles.string: CCc1nccn1CC(=O)Nc1ccc2c(c1)CNC2
pIC50: < 4.00
//
structure.smiles.string: NCc1cccc(NC(=O)C[C@H](NC(=O)OCc2ccccc2)c2ccc(C(F)(F)F)cc2)c1
pIC50: 4.23
//
structure.smiles.string: NCc1cccc(NC(=O)[C@@H](NC(=O)OCc2ccccc2)c2ccc(OCc3ccccn3)cc2)c1
pIC50: < 4.00
//
structure.smiles.string: CCn1c(=O)c(N2CCC[C@@H]2Cc2cccs2)nc2ccccc21
pIC50: < 4.00
//
structure.smiles.string: O=C(Nc1ccc2c(c1)CNC2)c1cncc2[nH]ncc12
pIC50: 6.35
//
structure.smiles.string: CS(=O)(=O)N(c1cc(Cl)cc(C(=O)Nc2cccc(CN)c2)c1)S(C)(=O)=O
pIC50: < 4.00
//
structure.smiles.string: NS(=O)(=O)c1ccc(N2CCC=C(c3cccc(O)c3)C2)c2ncccc12
pIC50: < 4.00
//
structure.smiles.string: NCc1cccc(NC(=O)[C@H](NC(=O)OCc2ccccc2)c2cccc(OCC3CCOCC3)c2)c1
pIC50: < 4.00
//
structure.smiles.string: O=C1OCc2ccc(NC(=O)[C@H]3CCNC3)cc21
pIC50: < 4.60
//
structure.smiles.string: CC(C)NC(=O)[C@H](Nc1ccc2c(c1)CNC2)c1cc(F)cc2[nH]ncc12
pIC50: 4.84
//
structure.smiles.string: Nc1ccc2ccc(B(O)O)cc2c1
pIC50: < 4.00
//
structure.smiles.string: O=C1Cc2c(cccc2C(=O)Nc2ccc(-c3cccnc3)cn2)N1
pIC50: < 4.60
//
structure.smiles.string: N#CC1(c2ccccc2)CCN(Cc2c[nH]c3ccccc23)CC1
pIC50: < 4.00
//
structure.smiles.string: O=C(Nc1cccnc1)C1CCN(Cc2c[nH]c3ccccc23)CC1
pIC50: 4.19
//
structure.smiles.string: O=C(NCC1CCNCC1)c1cc(Cl)cc2[nH]ncc12
pIC50: 4.13
//
structure.smiles.string: NCc1cc(Br)cc(NC(=O)c2cc(Cl)cc(NC(=O)OCc3ccccc3)c2)c1
pIC50: 4.78
//
structure.smiles.string: NCCc1cccc(NC(=O)c2cccc3c2CC(=O)N3)c1
pIC50: 6.48
//
structure.smiles.string: O=C(N[C@@H](C(=O)NCc1cccc2c1CCNC2)c1ccc(OCc2ccccc2)cc1)OCc1ccccc1
pIC50: 4.40
//
structure.smiles.string: CCCN1C(=O)[C@](Nc2ccc3c(c2)CNC3)(C(=O)NC)c2ccccc21
pIC50: < 4.60
//
structure.smiles.string: NCc1cccc(NC(=O)c2cc(Cl)cc(CNC(=O)OCc3ccccc3)c2)c1
pIC50: 4.66
//
structure.smiles.string: NCc1cccc(NC(=O)[C@H]2Cc3ccccc3N2C(=O)OCc2ccccc2)c1
pIC50: < 4.00
//
structure.smiles.string: NCc1ccc(C[C@H](NC(=O)OCc2ccccc2)C(=O)Nc2cccc(CN)c2)cc1
pIC50: 4.48
//
structure.smiles.string: O=C1Cc2c(cccc2C(=O)Nc2cccc(Cc3nn[nH]n3)c2)N1
pIC50: < 4.60
